The measured values listed here are drawn from patent US5981576A.

assayed target: COX-1 (Homo sapiens)
Sequence (P23219 24-599): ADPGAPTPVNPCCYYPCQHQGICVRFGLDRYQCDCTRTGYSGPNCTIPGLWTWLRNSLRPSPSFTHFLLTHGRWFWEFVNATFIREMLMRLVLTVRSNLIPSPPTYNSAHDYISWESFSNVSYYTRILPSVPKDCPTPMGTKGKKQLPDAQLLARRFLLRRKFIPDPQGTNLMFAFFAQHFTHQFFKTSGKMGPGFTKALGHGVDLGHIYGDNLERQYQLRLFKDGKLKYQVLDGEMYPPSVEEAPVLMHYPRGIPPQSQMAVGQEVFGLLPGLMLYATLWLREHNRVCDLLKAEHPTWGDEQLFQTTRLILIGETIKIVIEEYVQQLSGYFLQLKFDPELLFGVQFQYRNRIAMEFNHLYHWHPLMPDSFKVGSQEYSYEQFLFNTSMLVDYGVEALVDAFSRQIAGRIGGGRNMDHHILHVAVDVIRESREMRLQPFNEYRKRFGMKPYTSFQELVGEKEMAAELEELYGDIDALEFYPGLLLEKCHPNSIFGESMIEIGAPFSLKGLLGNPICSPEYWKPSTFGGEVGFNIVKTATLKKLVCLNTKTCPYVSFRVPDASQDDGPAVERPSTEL
measurement protocol: Human whole blood assay, COX-1 (clotting-induced TxB2 production)
Format: cell-based
measurement context: Table III, read-out: COX-1 (IC50) HWB
Property: pIC50; scope: individual molecules
In textbook form, pIC50 equals minus log to base ten of the concentration in mol/L.

1) CC1(C)OC(=O)C(OC2CCCCC2)=C1c1ccc(S(C)(=O)=O)cc1 [Example 14] ... 4.23
2) CC1(C)OC(=O)C(Oc2ccc(F)c(F)c2)=C1c1ccc(S(C)(=O)=O)cc1 [Example 1] ... 5.04
3) CC1(C)OC(=O)C(Oc2cc(F)cc(F)c2)=C1c1ccc(S(C)(=O)=O)cc1 [Example 3] ... 5.21

Continue with the next molecule.
[Q] Provide measured pIC50 value, entry: COC1(C)OC(=O)C(Oc2ccc(F)c(F)c2)=C1c1ccc(S(C)(=O)=O)cc1 (stereo not shown) [Example 24c]
[A] 4.60

* * *

assayed target: UniProt P35354
Sequence (P35354 18-604): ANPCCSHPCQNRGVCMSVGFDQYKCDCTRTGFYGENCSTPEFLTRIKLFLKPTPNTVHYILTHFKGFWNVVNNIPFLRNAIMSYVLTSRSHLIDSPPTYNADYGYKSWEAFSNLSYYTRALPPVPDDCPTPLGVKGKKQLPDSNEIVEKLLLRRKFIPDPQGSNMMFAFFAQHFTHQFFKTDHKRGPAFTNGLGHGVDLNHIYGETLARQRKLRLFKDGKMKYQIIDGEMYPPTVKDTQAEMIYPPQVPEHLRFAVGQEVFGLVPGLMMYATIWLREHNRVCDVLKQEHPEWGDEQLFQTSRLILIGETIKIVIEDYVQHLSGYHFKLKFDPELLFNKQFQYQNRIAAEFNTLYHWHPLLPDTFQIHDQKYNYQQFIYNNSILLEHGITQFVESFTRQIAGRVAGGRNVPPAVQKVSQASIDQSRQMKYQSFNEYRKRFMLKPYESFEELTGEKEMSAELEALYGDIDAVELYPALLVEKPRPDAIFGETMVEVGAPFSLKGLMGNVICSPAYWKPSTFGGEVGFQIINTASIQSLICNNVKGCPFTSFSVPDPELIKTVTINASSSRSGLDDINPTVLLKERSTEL
measurement protocol: biochemical
measurement context: Table IV; purified human COX-2; read-out: COX-2 (IC50, μM) TMPD
Property: IC50; scope: individual compounds
Answer in µM, number only, no unit symbol.

1. CC1(C)OC(=O)C(Oc2cncc(Cl)c2)=C1c1ccc(S(C)(=O)=O)cc1 [Example 49] ... 7.8

[Q] Provide measured IC50 value, entry: CC[C@@]1(C)OC(=O)C(Oc2ccc(F)cn2)=C1c1ccc(S(C)(=O)=O)cc1 [Example 162]
[A] 8

* * *

Property: IC50; scope: individual compounds
assayed target: COX-2 (Homo sapiens, UniProt P35354)
measurement protocol: cell-based
measurement context: Table IV; human whole blood, LPS-induced PGE2; read-out: COX-2 (IC50, μM) HWB

1. CC1(C)OC(=O)C(Oc2ccc(C(C)(C)O)cc2)=C1c1ccc(S(C)(=O)=O)cc1 ... 4.3 µM
2. Cc1ncc(OC2=C(c3ccc(S(C)(=O)=O)cc3)C(C)(C)OC2=O)cc1Br ... 5.2 µM
3. CC1(C)OC(=O)C(Oc2cncc(Cl)c2)=C1c1ccc(S(C)(=O)=O)cc1 ... 0.61 µM
4. C[C@]1(CC(F)(F)F)OC(=O)C(Oc2ccc(Cl)cn2)=C1c1ccc(S(C)(=O)=O)cc1 ... < 0.41 µM
5. CC[C@@]1(C)OC(=O)C(Oc2ccc(F)cn2)=C1c1ccc(S(C)(=O)=O)cc1 ... 0.62 µM

Continue with the next compound.
[Q] Give IC50 for "CC1(COC2=C(c3ccc(S(C)(=O)=O)cc3)C(C)(C)OC2=O)CC1" tested on COX-2 (Homo sapiens, UniProt P35354).
[A] < 0.41 µM
